Let's look at some variants and their measured FACS-Seq fitted mean (log10).
B1: library; a variant is named by its letters at N, in order (parent)
chain: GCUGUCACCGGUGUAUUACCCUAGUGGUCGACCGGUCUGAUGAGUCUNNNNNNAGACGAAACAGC

Variants of: B1
Experiment: FACS-Seq fitted mean relative fluorescence mCherry/BFP with ligand (log10 relative fluorescence); ligand: hypoxanthine (xanthine aptamer); ligand concentration (+) FACS-Seq: 5 mM; higher = higher reporter protein expression
Conditions: HEK293T, ligand present: yes

{"columns": ["variant-id", "FACS-Seq fitted mean (log10)"],
 "data": [
  ["UUCAAA", 0.0695],
  ["GGACAC", 0.59],
  ["GGGUUG", 0.486],
  ["GAGGUG", 0.551],
  ["AGGGAA", 0.684],
  ["GAGUGG", 0.299],
  ["CGACGC", -0.157],
  ["CUGAAA", 0.587],
  ["CUGAGA", 0.753],
  ["GCUAAU", 0.764],
  ["GGGCAU", 0.103]
]}
